# experimental-system: Guanlyate kinase (UniProt Q0TBG1)
# Sequence (Q0TBG1 whole entry): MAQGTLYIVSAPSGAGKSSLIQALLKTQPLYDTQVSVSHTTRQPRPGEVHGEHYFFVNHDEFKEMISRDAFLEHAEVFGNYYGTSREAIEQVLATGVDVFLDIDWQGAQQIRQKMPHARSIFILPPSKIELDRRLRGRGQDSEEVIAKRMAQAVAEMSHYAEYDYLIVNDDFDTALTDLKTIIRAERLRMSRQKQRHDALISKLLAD
# test-summary: relative enzymatic activity vs untreated control (fraction); higher = less inhibition
# details: 100 µM; incubation time: 2 h at 37 C
observed-property: relative enzymatic activity
Please give only the number in your answer, with no unit.

Worked examples, 2 molecules total:
### Prompt Identify measured relative enzymatic activity associated with "CO/N=C(\C(=O)N[C@@H]1C(=O)N2C(C(=O)O)=C(CSc3nnnn3C)CS[C@H]12)c1csc(N)n1"
### Response 0.883

### Prompt Please list relative enzymatic activity recorded for the molecule "CC(C)[C@@H](CC[C@@H](C)[C@H]1CC[C@H]2[C@@H]3[C@H](O)C[C@H]4C[C@@H](NCCCNCCCCNCCCN)CC[C@]4(C)[C@H]3CC[C@]12C)OS(=O)(=O)O"
### Response 0.334

Read the next record carefully.
### Prompt Provide one value: measured relative enzymatic activity of "O=C1C=CC(=O)N1"
### Response 0.814

Sourced from the supplement of paper PMC9446081
